# experimental target: UniProtKB Q9N6S8
# assay protocol: Inhibition of Plasmodium falciparum recombinant falcipain-2
readout: Ki (µM)

1. COc1ccc(S(=O)(=O)/C=C/[C@H](CCc2ccccc2)NC(=O)CN2C(=O)[C@@H](COC(=O)Nc3ccc(Cl)cc3C(F)(F)F)N=C(c3ccccc3)c3ccccc32)cc1 :: 0.053
2. CS(=O)(=O)/C=C/CNC(=O)CN1C(=O)[C@@H](COC(=O)Nc2ccc(Cl)cc2C(F)(F)F)N=C(c2ccccc2)c2ccccc21 :: 0.37
3. COc1ccc(S(=O)(=O)/C=C/CNC(=O)CN2C(=O)C(COC(=O)Nc3ccc(Cl)cc3C(F)(F)F)N=C(c3ccccc3)c3ccccc32)cc1 (stereo unspecified) :: 0.12
4. O=C(CN1C(=O)[C@@H](COC(=O)Nc2ccc(Cl)cc2C(F)(F)F)N=C(c2ccccc2)c2ccccc21)NC/C=C/S(=O)(=O)c1ccccc1 :: 0.14
5. O=C(CN1C(=O)[C@@H](COC(=O)Nc2ccc(Cl)cc2C(F)(F)F)N=C(c2ccccc2)c2ccccc21)N[C@H](/C=C/S(=O)(=O)c1ccccc1)CCc1ccccc1 :: 0.6
6. CC(C)C[C@H](NC(=O)[C@H]1O[C@@H]1C(=O)O)C(=O)NCCCCN=C(N)N :: 0.29

====

# maps each entry to its Kinact
# experimental target: UniProtKB P07858
# assay protocol: Inhibition of human cathepsin B
readout: Kinact

1) O=C(CN1C(=O)[C@@H](COC(=O)Nc2ccc(Cl)cc2C(F)(F)F)N=C(c2ccccc2)c2ccccc21)NC/C=C/S(=O)(=O)c1ccccc1 :: 0.047 min⁻¹
2) COc1ccc(S(=O)(=O)/C=C/[C@H](CCc2ccccc2)NC(=O)CN2C(=O)[C@@H](COC(=O)Nc3ccc(Cl)cc3C(F)(F)F)N=C(c3ccccc3)c3ccccc32)cc1 :: 0.045 min⁻¹
3) COc1ccc(S(=O)(=O)/C=C/CNC(=O)CN2C(=O)C(COC(=O)Nc3ccc(Cl)cc3C(F)(F)F)N=C(c3ccccc3)c3ccccc32)cc1 (stereo not drawn) :: 0.059 min⁻¹
4) CS(=O)(=O)/C=C/[C@H](CCc1ccccc1)NC(=O)CN1C(=O)[C@@H](COC(=O)Nc2ccc(Cl)cc2C(F)(F)F)N=C(c2ccccc2)c2ccccc21 :: 0.064 min⁻¹
5) CCS(=O)(=O)/C=C/CNC(=O)CN1C(=O)[C@@H](COC(=O)Nc2ccc(Cl)cc2C(F)(F)F)N=C(c2ccccc2)c2ccccc21 :: 0.039 min⁻¹
6) CCS(=O)(=O)/C=C/[C@H](CCc1ccccc1)NC(=O)CN1C(=O)[C@@H](COC(=O)Nc2ccc(Cl)cc2C(F)(F)F)N=C(c2ccccc2)c2ccccc21 :: 0.045 min⁻¹
7) O=C(CN1C(=O)[C@@H](COC(=O)Nc2ccc(Cl)cc2C(F)(F)F)N=C(c2ccccc2)c2ccccc21)N[C@H](/C=C/S(=O)(=O)c1ccccc1)CCc1ccccc1 :: 0.039 min⁻¹
8) CS(=O)(=O)/C=C/CNC(=O)CN1C(=O)[C@@H](COC(=O)Nc2ccc(Cl)cc2C(F)(F)F)N=C(c2ccccc2)c2ccccc21 :: 0.048 min⁻¹

====

# experimental target: Procathepsin L (Homo sapiens, UniProt P07711)
# assay protocol: Inhibition of human cathepsin L
readout: Kinact (min⁻¹)

1. O=C(CN1C(=O)[C@@H](COC(=O)Nc2ccc(Cl)cc2C(F)(F)F)N=C(c2ccccc2)c2ccccc21)NC/C=C/S(=O)(=O)c1ccccc1 :: 0.16
2. O=C(CN1C(=O)[C@@H](COC(=O)Nc2ccc(Cl)cc2C(F)(F)F)N=C(c2ccccc2)c2ccccc21)N[C@H](/C=C/S(=O)(=O)c1ccccc1)CCc1ccccc1 :: 0.12
3. COc1ccc(S(=O)(=O)/C=C/CNC(=O)CN2C(=O)C(COC(=O)Nc3ccc(Cl)cc3C(F)(F)F)N=C(c3ccccc3)c3ccccc32)cc1 (centres undefined) :: 0.1
4. CCS(=O)(=O)/C=C/[C@H](CCc1ccccc1)NC(=O)CN1C(=O)[C@@H](COC(=O)Nc2ccc(Cl)cc2C(F)(F)F)N=C(c2ccccc2)c2ccccc21 :: 0.1

====

# maps each entry to its Kinact
# experimental target: Falcipain 2 (Plasmodium falciparum) (UniProt Q9N6S8)
# assay protocol: Inhibition of Plasmodium falciparum recombinant falcipain-2
readout: Kinact (min⁻¹)

1. CCS(=O)(=O)/C=C/[C@H](CCc1ccccc1)NC(=O)CN1C(=O)[C@@H](COC(=O)Nc2ccc(Cl)cc2C(F)(F)F)N=C(c2ccccc2)c2ccccc21 :: 0.1
2. COc1ccc(S(=O)(=O)/C=C/CNC(=O)CN2C(=O)C(COC(=O)Nc3ccc(Cl)cc3C(F)(F)F)N=C(c3ccccc3)c3ccccc32)cc1 (stereo unspecified) :: 0.031
3. COc1ccc(S(=O)(=O)/C=C/[C@H](CCc2ccccc2)NC(=O)CN2C(=O)[C@@H](COC(=O)Nc3ccc(Cl)cc3C(F)(F)F)N=C(c3ccccc3)c3ccccc32)cc1 :: 0.034
4. CS(=O)(=O)/C=C/[C@H](CCc1ccccc1)NC(=O)CN1C(=O)[C@@H](COC(=O)Nc2ccc(Cl)cc2C(F)(F)F)N=C(c2ccccc2)c2ccccc21 :: 0.16
5. O=C(CN1C(=O)[C@@H](COC(=O)Nc2ccc(Cl)cc2C(F)(F)F)N=C(c2ccccc2)c2ccccc21)N[C@H](/C=C/S(=O)(=O)c1ccccc1)CCc1ccccc1 :: 0.11
6. CC(C)C[C@H](NC(=O)[C@H]1O[C@@H]1C(=O)O)C(=O)NCCCCN=C(N)N :: 0.46

====

# experimental target: Cathepsin B (Homo sapiens, UniProt P07858)
Field 'label' (enum: Satisfied / Not satisfied). Set to Satisfied when Ki is strictly under 5 µM; else Not satisfied.

1) CCS(=O)(=O)/C=C/[C@H](CCc1ccccc1)NC(=O)CN1C(=O)[C@@H](COC(=O)Nc2ccc(Cl)cc2C(F)(F)F)N=C(c2ccccc2)c2ccccc21 :: Satisfied
2) CS(=O)(=O)/C=C/CNC(=O)CN1C(=O)[C@@H](COC(=O)Nc2ccc(Cl)cc2C(F)(F)F)N=C(c2ccccc2)c2ccccc21 :: Not satisfied
3) CCS(=O)(=O)/C=C/CNC(=O)CN1C(=O)[C@@H](COC(=O)Nc2ccc(Cl)cc2C(F)(F)F)N=C(c2ccccc2)c2ccccc21 :: Satisfied
4) O=C(CN1C(=O)[C@@H](COC(=O)Nc2ccc(Cl)cc2C(F)(F)F)N=C(c2ccccc2)c2ccccc21)NC/C=C/S(=O)(=O)c1ccccc1 :: Satisfied
5) COc1ccc(S(=O)(=O)/C=C/CNC(=O)CN2C(=O)C(COC(=O)Nc3ccc(Cl)cc3C(F)(F)F)N=C(c3ccccc3)c3ccccc32)cc1 (stereo not given) :: Not satisfied

====

# experimental target: Falcipain 2 (Plasmodium falciparum, UniProt Q9N6S8)
# Sequence (Q9N6S8 whole entry): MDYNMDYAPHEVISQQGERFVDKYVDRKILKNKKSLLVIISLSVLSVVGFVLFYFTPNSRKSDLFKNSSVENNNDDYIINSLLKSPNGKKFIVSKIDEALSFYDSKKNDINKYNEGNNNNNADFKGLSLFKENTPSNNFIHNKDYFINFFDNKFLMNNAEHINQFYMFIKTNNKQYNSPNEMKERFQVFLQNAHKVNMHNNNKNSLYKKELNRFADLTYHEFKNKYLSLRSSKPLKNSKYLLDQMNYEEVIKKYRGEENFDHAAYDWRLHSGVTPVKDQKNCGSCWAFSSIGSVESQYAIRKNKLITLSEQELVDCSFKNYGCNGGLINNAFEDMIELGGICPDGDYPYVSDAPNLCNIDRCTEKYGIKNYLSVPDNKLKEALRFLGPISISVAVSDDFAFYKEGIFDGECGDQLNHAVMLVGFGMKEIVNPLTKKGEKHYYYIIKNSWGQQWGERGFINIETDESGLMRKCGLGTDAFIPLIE
# assay protocol: Inhibition of Plasmodium falciparum recombinant falcipain-2
pKi: −log10 of the molar value.
# maps each entry to its pKi
readout: pKi

1. CCS(=O)(=O)/C=C/[C@H](CCc1ccccc1)NC(=O)CN1C(=O)[C@@H](COC(=O)Nc2ccc(Cl)cc2C(F)(F)F)N=C(c2ccccc2)c2ccccc21 :: 6.49
2. CCS(=O)(=O)/C=C/CNC(=O)CN1C(=O)[C@@H](COC(=O)Nc2ccc(Cl)cc2C(F)(F)F)N=C(c2ccccc2)c2ccccc21 :: 6.96
3. CS(=O)(=O)/C=C/[C@H](CCc1ccccc1)NC(=O)CN1C(=O)[C@@H](COC(=O)Nc2ccc(Cl)cc2C(F)(F)F)N=C(c2ccccc2)c2ccccc21 :: 6.41

====

# experimental target: Procathepsin L (Homo sapiens, UniProt P07711)
pKi: −log10 of the molar value.
# maps each entry to its pKi
readout: pKi

1. CCS(=O)(=O)/C=C/[C@H](CCc1ccccc1)NC(=O)CN1C(=O)[C@@H](COC(=O)Nc2ccc(Cl)cc2C(F)(F)F)N=C(c2ccccc2)c2ccccc21 :: 4.87
2. O=C(CN1C(=O)[C@@H](COC(=O)Nc2ccc(Cl)cc2C(F)(F)F)N=C(c2ccccc2)c2ccccc21)NC/C=C/S(=O)(=O)c1ccccc1 :: 4.66
3. COc1ccc(S(=O)(=O)/C=C/CNC(=O)CN2C(=O)C(COC(=O)Nc3ccc(Cl)cc3C(F)(F)F)N=C(c3ccccc3)c3ccccc32)cc1 (stereo not drawn) :: 4.85
